Values compiled from patent US11214803B2.

Tested on: Yap1 mRNA
Experiment: Antisense inhibition of human Yap1 in SNU-449 cells by modified oligonucleotides, single dose (Example 5, RTS36584)
Format: cell-based
Conditions: Table 41; SNU-449 cells, 10,000 cells per well, free uptake, 2,000 nM modified oligonucleotide, approximately 48 hours; RTS36584; normalized to RIBOGREEN; Yap1 mRNA relative to untreated control cells
Strand notation (5' to 3'): a small letter for the sugar, then the base; units joined by * are phosphorothioate-linked, units joined directly phosphodiester-linked; [ ] holds rarer units or linkages, { } end groups; capitals alone tell only the bases. e = 2'-O-(2-methoxyethyl) (MOE); k = constrained ethyl (cEt); [5mC] = 5-methylcytosine; d = 2'-deoxy (DNA)
Rule: YAP1 (% UTC) of 30 % UTC or more gives label 1; anything lower gives label 0.

Known results for substances:
Substance: 1198787 (antisense kA*eG*kT*dG*dT*dA*dT*dG*dT*d[5mC]*dA*dG*eA*eA*kG*kA) [Compound 1198787]
Tgt: Yap1 mRNA
Class Label: label 0
--
Substance: 1198630 (kA*kA*dT*dT*dG*dT*d[5mC]*dT*d[5mC]*dA*dT*dG*k[5mC]*e[5mC]*kT*eT; antisense) [Compound 1198630]
Tgt: Yap1 mRNA
Class Label: label 1
--
Substance: 1198771 (kT*e[5mC]*kT*dT*dA*dT*dA*dT*dG*dG*dT*dT*eT*eT*kG*kT; antisense) [Compound 1198771]
Tgt: Yap1 mRNA
Class Label: label 1
--
Substance: 1198643 (kA*kT*dA*dT*dT*dA*dG*dA*dG*dT*dA*dT*kG*eT*kG*eG; antisense) [Compound 1198643]
Tgt: Yap1 mRNA
Class Label: label 0
--
Substance: 1198793 (antisense k[5mC]*eT*kT*dT*dA*dA*dA*dG*dT*dG*dT*dA*eT*eG*kT*k[5mC]) [Compound 1198793]
Tgt: Yap1 mRNA
Class Label: label 1

We now examine a further substance.
Request: API: above_or_equal(metric=YAP1 (% UTC), cutoff=30 % UTC) for item 1198674 (antisense kA*kG*dA*dT*dT*dT*dA*dG*dG*dA*dT*dG*k[5mC]*eA*kT*eG) [Compound 1198674]
Response: label 0
